Target: T1, FX zymogen (UniProt P00742 41-179; P00742 183-488)
T1 chain 1: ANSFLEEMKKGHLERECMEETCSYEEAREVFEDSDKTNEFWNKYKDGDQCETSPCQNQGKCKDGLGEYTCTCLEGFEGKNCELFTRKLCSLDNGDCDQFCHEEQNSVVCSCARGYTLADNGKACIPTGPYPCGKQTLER
T1 chain 2: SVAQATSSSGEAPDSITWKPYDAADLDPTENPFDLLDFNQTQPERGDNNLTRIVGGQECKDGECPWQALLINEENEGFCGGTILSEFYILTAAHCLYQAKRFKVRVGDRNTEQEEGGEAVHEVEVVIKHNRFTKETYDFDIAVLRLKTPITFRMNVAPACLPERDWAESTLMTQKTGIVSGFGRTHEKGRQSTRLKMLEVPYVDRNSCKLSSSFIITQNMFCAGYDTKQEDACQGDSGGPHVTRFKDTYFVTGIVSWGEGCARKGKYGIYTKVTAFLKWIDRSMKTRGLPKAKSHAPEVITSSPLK
Test: BLI
# key: entry, value: pKd
# reply with the number alone; pKd is -log10 of concentration in mol/L

Solved entries (count: 2):
Exercise: Quick one: pKd for BIIB-12-1312 (antibody, V domains shown) VH: QVQLVESGGGVVQPGRSLRLSCAASGFTFSSYGMHWVRQAPGKGLEWVAVISYDGSNKYYADSVKGRFTISRDNSKNTLYLQMNSLRAEDTAVYYCAKGMGHWIDYWGQGTLVTVSS VL: DIQMTQSPSSVSASVGDRVTITCRASQGISSWLAWYQQKPGKAPKLLIYAASSLQSGVPSRFSGSGSGTDFTLTISSLQPEDFATYYCQQASSFPPTFGGGTKVEIK ?
Key: 7.83

Exercise: Quick one: pKd for BIIB-12-1291 (antibody, V domains shown) VH: QVQLVQSGAEVKKPGASVKVSCKASGYTFTSYYMHWVRQAPGQGLEWMGIINPSGGSTSYAQKFQGRVTMTRDTSTSTVYMELSSLRSEDTAVYYCARSRRMWVGYFDLWGRGTLVTVSS VL: EIVLTQSPATLSLSPGERATLSCRASQSVSSYLAWYQQKPGQAPRLLIYDASNRATGIPARFSGSGSGTDFTLTISSLEPEDFAVYYCQQRLNLPLTFGGGTKVEIK ?
Key: 7.37

Moving on to another binder below.
Exercise: Quick one: pKd for BIIB-12-1307 (antibody, V domains shown) VH: QVQLQESGPGLVKPSETLSLTCAVSGYSISSGYYWAWIRQPPGKGLEWIGSIYHSGSTYYNPSLKSRVTISVDTSKNQFSLKLSSVTAADTAVYYCARGPLPRSRGLAFDIWGQGTMVTVSS VL: DIQLTQSPSSLSASVGDRVTITCRASQSISSFLNWYQQKPGKAPKLLIYAASSLQSGVPSRFSGSGSGTDFTLTISSLQPEDFATYYCQQTYSTPLTFGGGTKVEIK ?
Key: 7.70
